Reference for the values: patent US20250059174A1

Measured IC50 by item
- experimental-target: Recombinant human c-KIT kinase (Homo sapiens (Human))
- Sequence (P10721 26-976): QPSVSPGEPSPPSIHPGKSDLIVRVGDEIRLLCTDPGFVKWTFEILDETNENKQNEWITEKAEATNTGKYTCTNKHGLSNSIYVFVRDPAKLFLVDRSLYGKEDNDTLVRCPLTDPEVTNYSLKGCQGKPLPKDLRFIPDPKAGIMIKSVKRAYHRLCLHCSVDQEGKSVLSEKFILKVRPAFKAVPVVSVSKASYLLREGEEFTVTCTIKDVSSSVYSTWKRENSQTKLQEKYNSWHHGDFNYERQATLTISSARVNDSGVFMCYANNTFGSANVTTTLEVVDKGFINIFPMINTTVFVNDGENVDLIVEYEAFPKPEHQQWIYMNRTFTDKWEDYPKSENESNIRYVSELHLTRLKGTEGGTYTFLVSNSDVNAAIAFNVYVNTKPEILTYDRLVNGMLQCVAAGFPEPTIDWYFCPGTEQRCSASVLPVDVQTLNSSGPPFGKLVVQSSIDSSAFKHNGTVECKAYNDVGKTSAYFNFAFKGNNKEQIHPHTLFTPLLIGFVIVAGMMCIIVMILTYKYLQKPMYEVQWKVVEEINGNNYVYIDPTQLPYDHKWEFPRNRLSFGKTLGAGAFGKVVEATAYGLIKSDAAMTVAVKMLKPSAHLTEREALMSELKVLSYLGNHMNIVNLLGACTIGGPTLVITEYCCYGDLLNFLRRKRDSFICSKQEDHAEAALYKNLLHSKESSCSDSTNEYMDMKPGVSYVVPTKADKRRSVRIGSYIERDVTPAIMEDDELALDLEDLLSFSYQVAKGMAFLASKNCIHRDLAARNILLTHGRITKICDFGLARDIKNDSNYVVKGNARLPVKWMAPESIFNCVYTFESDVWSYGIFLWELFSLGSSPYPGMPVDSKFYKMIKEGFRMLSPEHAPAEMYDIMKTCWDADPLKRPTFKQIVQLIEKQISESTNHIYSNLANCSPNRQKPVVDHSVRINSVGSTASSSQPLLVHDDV
- method-notes: c-KIT kinase chemiluminescence assay (ADP-Glo)
- conditions: ATP 50 μM

For Cc1ccc(-c2noc([C@H]3C[C@@H]3F)n2)cc1NC(=O)c1cnc(C)n1C [Example 4] on Recombinant human c-KIT kinase (Homo sapiens (Human)), measured IC50 was > 1000 nM

For Cc1ccc(-c2noc([C@H]3C[C@@H]3F)n2)cc1NC(=O)c1cnc(-c2ccnc(N)c2)o1 [Example 290] on Recombinant human c-KIT kinase (Homo sapiens (Human)), measured IC50 was 100 to 1000 nM

For O=C(Nc1cc(-c2noc([C@H]3C[C@@H]3F)n2)ccc1Cl)c1cnn2ccc(N3CC4(C3)CC(O)(C(F)F)C4)cc12 [Example 281-26] on Recombinant human c-KIT kinase (Homo sapiens (Human)), measured IC50 was 100 to 1000 nM

For O=C(Nc1cc(-c2noc(N3CC(F)(F)C3)n2)ccc1Cl)c1cnn2ccc(N3CC4(COC4)C3)cc12 [Example 281-124] on Recombinant human c-KIT kinase (Homo sapiens (Human)), measured IC50 was 100 to 1000 nM

For Cc1ncc(-c2noc([C@H]3C[C@@H](OC(F)(F)F)C3)n2)cc1NC(=O)c1cnn2cc(-c3cn(C(F)F)nn3)ccc12 [Example 132-6] on Recombinant human c-KIT kinase (Homo sapiens (Human)), measured IC50 was 100 to 1000 nM

For Cc1ncc(-c2noc(C3CN(C(=O)[C@H]4C[C@@H]4F)C3)n2)cc1NC(=O)c1cnn2ccc(N3CC4(COC4)C3)cc12 [Example 281-80] on Recombinant human c-KIT kinase (Homo sapiens (Human)), measured IC50 was > 1000 nM

For O=C(Nc1cn(-c2ccc(C3CC3)cc2)nc1C(F)F)c1cnn2ccc(N3CC4(COC4)C3)cc12 [compound 373] on Recombinant human c-KIT kinase (Homo sapiens (Human)), measured IC50 was > 1000 nM

For Cc1ncc(-c2noc([C@H]3C[C@@H]3F)n2)cc1NC(=O)c1cnc(-c2ccc3c(c2)CC(=O)N3)o1 [Example 308-12] on Recombinant human c-KIT kinase (Homo sapiens (Human)), measured IC50 was > 1000 nM

For Cc1ccc(-c2ccc(C3CC3)nc2)cc1NC(=O)c1cnn2ccc(N3CC4(COC4)C3)cc12 [Example 342] on Recombinant human c-KIT kinase (Homo sapiens (Human)), measured IC50 was < 100 nM

For Cc1ccc(-c2noc([C@H]3C[C@@H]3F)n2)cc1NC(=O)c1cnc(-c2ccc3nc[nH]c3c2)o1 [Example 308-39] on Recombinant human c-KIT kinase (Homo sapiens (Human)), measured IC50 was 100 to 1000 nM

For Cc1ccc(-c2ncc3c(ccn3C(F)F)n2)cc1NC(=O)c1cnn2ccc(N3CC4(C3)CC(O)(C(F)F)C4)cc12 [Example 319] on Recombinant human c-KIT kinase (Homo sapiens (Human)), measured IC50 was < 100 nM

For Cc1ccc(-c2noc([C@H]3C[C@@H]3F)n2)cc1NC(=O)c1cnn2ccc(-c3c(C)nc(N4CC(F)(F)C4)nc3C)cc12 [Example 171-13] on Recombinant human c-KIT kinase (Homo sapiens (Human)), measured IC50 was 100 to 1000 nM

For Cc1cc(F)c(-c2noc([C@H]3C[C@@H]3F)n2)cc1NC(=O)c1cnc(-c2ccc3[nH]ncc3c2)o1 [Example 308-11] on Recombinant human c-KIT kinase (Homo sapiens (Human)), measured IC50 was 100 to 1000 nM

For Cc1cc(F)c(-c2noc([C@H]3C[C@@H]3C(F)F)n2)cc1NC(=O)c1cnn2ccc(N3CC4(COC4)C3)cc12 [Example 281-59] on Recombinant human c-KIT kinase (Homo sapiens (Human)), measured IC50 was < 100 nM

For Cc1ccc(-c2noc([C@H]3C[C@@H]3F)n2)cc1NC(=O)c1cnc2c(c1)ncn2C(=O)C(C)C [Example 67] on Recombinant human c-KIT kinase (Homo sapiens (Human)), measured IC50 was > 1000 nM

For Cc1ccc(-c2noc([C@H]3C[C@@H]3F)n2)cc1NC(=O)c1cnn2ccc(-c3nnc(N)nc3C)cc12 [Example 171-1] on Recombinant human c-KIT kinase (Homo sapiens (Human)), measured IC50 was < 100 nM
